Entry source: BindingDB's records for doi:10.1021/jm0701019

Molecular target: RAC-alpha serine/threonine-protein kinase [139-480,S378A,S381A,T450D,S473D] (Homo sapiens, UniProt P31749, S378A/S381A/S473D/T450D)
Construct: 139-480
Sequence (P31749 139-480 S378A/S381A/T450D/S473D): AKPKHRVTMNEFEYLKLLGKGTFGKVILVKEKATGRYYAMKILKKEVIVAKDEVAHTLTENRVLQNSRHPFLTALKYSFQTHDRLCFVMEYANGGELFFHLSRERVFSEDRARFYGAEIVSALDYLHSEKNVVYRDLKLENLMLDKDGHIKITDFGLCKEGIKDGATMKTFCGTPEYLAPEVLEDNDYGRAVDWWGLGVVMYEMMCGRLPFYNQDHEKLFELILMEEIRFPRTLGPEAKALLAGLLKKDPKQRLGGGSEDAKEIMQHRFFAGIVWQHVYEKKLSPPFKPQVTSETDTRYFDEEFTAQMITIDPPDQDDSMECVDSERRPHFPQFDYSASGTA
Assay: Akt Kinase Assay
Conditions: pH 7.5; 22 °C
This section presents compounds with their documented pIC50 values.
Conceptually, pIC50 converts a concentration in mol/L into minus its log10.

The following compounds have reported results that may help.
[[record]]
smiles_input = "Cc1n[nH]c2ccc(-c3cncc(OC[C@@H](N)Cc4cccc(F)c4F)c3)cc12"
readout_kind = "pIC50"
obs_value = 8.07

[[record]]
smiles_input = "N[C@H](COc1cncc(-c2ccc3c(c2)/C(=C\\c2ccco2)C(=O)N3)c1)Cc1ccccc1"
readout_kind = "pIC50"
obs_value = 8.85

[[record]]
smiles_input = "Cc1n[nH]c2ccc(-c3cncc(OC[C@@H](N)Cc4ccc(F)cc4F)c3)cc12"
readout_kind = "pIC50"
obs_value = 7.68

[[record]]
smiles_input = "N[C@H](COc1cncc(-c2ccc3c(c2)CC(=O)N3)c1)Cc1ccccc1"
readout_kind = "pIC50"
obs_value = 5.58


Continue with the compound presented below.
Ask | Answer with reported pIC50 of "N[C@H](COc1cncc(-c2ccc3c(c2)/C(=C/c2ccc[nH]2)C(=O)N3)c1)Cc1ccccc1"
Reply | 7.80

###

Target: RAC-alpha serine/threonine-protein kinase [139-480,S378A,S381A,T450D,S473D] (Homo sapiens, UniProt P31749, S378A/S381A/S473D/T450D)
Construct: 139-480
Assay: Akt Kinase Assay
Readout kind: pIC50
Conceptually, pIC50 converts a concentration in mol/L into minus its log10.

The following molecules have reported results that may help.
[[record]]
smiles_input = "Cc1n[nH]c2cnc(-c3cncc(OC[C@@H](N)Cc4cccc(C(F)(F)F)c4)c3)cc12"
obs_value = 9.22

[[record]]
smiles_input = "Cc1n[nH]c2ccc(-c3cncc(OC[C@@H](N)Cc4cccc(Cl)c4Cl)c3)cc12"
obs_value = 8.25


Continue with the molecule presented below.
Ask | Answer with reported pIC50 of "Cc1n[nH]c2ccc(-c3cncc(OC[C@@H](N)Cc4cccc(-c5ccccc5)c4)c3)cc12"
Reply | 6.90

###

Biological target: cAMP-dependent protein kinase catalytic subunit alpha (Bos taurus)
Test: PKA/PKC Kinase Assay
Readout kind: IC50 (nM)
A number alone suffices; assume nM.

Ask | Answer with reported IC50 of "Cc1n[nH]c2ccc(-c3cncc(OC[C@@H](N)Cc4ccc(Br)cc4)c3)cc12"
Reply | 15

###

Target: RAC-alpha serine/threonine-protein kinase [139-480,S378A,S381A,T450D,S473D] (Homo sapiens, UniProt P31749, S378A/S381A/S473D/T450D)
Construct: 139-480
Experiment: Akt Kinase Assay
pIC50: −log10 of the molar value.
Decision: pIC50 >= 8 yields MET, all other cases yield NOT MET.

[[record]]
smiles_input = "Cc1n[nH]c2ccc(-c3cncc(OC[C@@H](N)Cc4ccc(Cl)c(F)c4)c3)cc12"
group_label = "MET"

[[record]]
smiles_input = "Cc1n[nH]c2ccc(-c3cncc(OC[C@@H](N)Cc4cccc(OCCN)c4)c3)cc12"
group_label = "NOT MET"

[[record]]
smiles_input = "Cc1n[nH]c2ccc(-c3cncc(OC[C@@H](N)Cc4cccc(OCC5CCN(C)CC5)c4)c3)cc12"
group_label = "NOT MET"

[[record]]
smiles_input = "Cc1n[nH]c2ccc(-c3cncc(OC[C@@H](N)Cc4ccc(C(F)(F)F)cc4)c3)cc12"
group_label = "NOT MET"

[[record]]
smiles_input = "Cc1n[nH]c2ccc(-c3cncc(OC[C@@H](N)Cc4cccc(OCCC5CCNCC5)c4)c3)cc12"
group_label = "NOT MET"


Ask | Is pIC50 for "Cc1n[nH]c2ccc(-c3cncc(OC[C@@H](N)Cc4ccc5c(c4)OCO5)c3)cc12" at or above 8?
Reply | NOT MET

###

Biological target: RAC-alpha serine/threonine-protein kinase [139-480,S378A,S381A,T450D,S473D] (Homo sapiens, UniProt P31749, S378A/S381A/S473D/T450D)
Construct: 139-480
Test: Akt Kinase Assay
Readout kind: pIC50
Conceptually, pIC50 converts a concentration in mol/L into minus its log10.

The following molecules have reported results that may help.
[[record]]
smiles_input = "Cc1n[nH]c2ccc(-c3cncc(OC[C@@H](N)Cc4cccc(I)c4)c3)cc12"
obs_value = 9.05

[[record]]
smiles_input = "Cc1n[nH]c2ccc(-c3cncc(OC[C@@H](N)Cc4ccc(C(F)(F)F)cc4F)c3)cc12"
obs_value = 7.92

[[record]]
smiles_input = "Cc1cc(C[C@H](N)COc2cncc(-c3ccc4[nH]nc(C)c4c3)c2)ccc1F"
obs_value = 7.96

[[record]]
smiles_input = "Cc1n[nH]c2ccc(-c3cncc(OC[C@@H](N)Cc4ccc(Br)c(F)c4)c3)cc12"
obs_value = 8.89

[[record]]
smiles_input = "Cc1n[nH]c2ccc(-c3cncc(OC[C@@H](N)Cc4ccc(Cl)cc4)c3)cc12"
obs_value = 7.96

[[record]]
smiles_input = "Cc1n[nH]c2ccc(-c3cncc(OC[C@@H](N)Cc4cccc(Br)c4)c3)cc12"
obs_value = 8.68

[[record]]
smiles_input = "Cc1n[nH]c2ccc(-c3cncc(OC[C@@H](N)Cc4ccc5c(c4)OC(F)(F)C(F)(F)O5)c3)cc12"
obs_value = 7.89

[[record]]
smiles_input = "Cc1cc(C)c(C[C@H](N)COc2cncc(-c3ccc4[nH]nc(C)c4c3)c2)c(C)c1"
obs_value = 7.41

[[record]]
smiles_input = "Cc1n[nH]c2ccc(-c3cncc(OC[C@@H](N)Cc4c(F)cc(F)cc4Br)c3)cc12"
obs_value = 7.31

[[record]]
smiles_input = "Cc1ccc(F)cc1C[C@H](N)COc1cncc(-c2ccc3[nH]nc(C)c3c2)c1"
obs_value = 8.41


Ask | Answer with reported pIC50 of "Cc1n[nH]c2ccc(-c3cncc(OC[C@@H](N)Cc4cc(C(F)(F)F)ccc4F)c3)cc12"
Reply | 8.92

Ask | Answer with reported pIC50 of "Cc1n[nH]c2ccc(-c3cncc(OC[C@@H](N)Cc4ccc(OC(F)(F)F)cc4)c3)cc12"
Reply | 7.69

Ask | Answer with reported pIC50 of "Cc1n[nH]c2ccc(-c3cncc(OC[C@@H](N)Cc4cc(F)cc(C(F)(F)F)c4)c3)cc12"
Reply | 7.88

Ask | Answer with reported pIC50 of "N[C@H](COc1cncc(-c2cc3c(Cl)n[nH]c3cn2)c1)Cc1cccc(C(F)(F)F)c1"
Reply | 8.54

Ask | Answer with reported pIC50 of "Cc1n[nH]c2ccc(-c3cncc(OC[C@@H](N)Cc4cccc5c4OC(F)(F)O5)c3)cc12"
Reply | 7.85

Ask | Answer with reported pIC50 of "N[C@H](COc1cncc(-c2cc3cn[nH]c3cn2)c1)Cc1cccc(C(F)(F)F)c1"
Reply | 8.14

Ask | Answer with reported pIC50 of "Cc1n[nH]c2ccc(-c3cncc(OC[C@@H](N)Cc4cccc(C(F)(F)F)c4)c3)cc12"
Reply | 8.92

Ask | Answer with reported pIC50 of "Cc1n[nH]c2ccc(-c3cncc(OC[C@@H](N)Cc4cc(Cl)cc(Cl)c4)c3)cc12"
Reply | 7.68

Ask | Answer with reported pIC50 of "Cc1cc(F)ccc1C[C@H](N)COc1cncc(-c2ccc3[nH]nc(C)c3c2)c1"
Reply | 8.22

###

Molecular target: RAC-alpha serine/threonine-protein kinase [139-480,S378A,S381A,T450D,S473D] (Homo sapiens, UniProt P31749, S378A/S381A/S473D/T450D)
Construct: 139-480
Assay: Akt Kinase Assay
Readout kind: IC50
Hi, when you answer, please include the unit after the number. Thanks!

The following compounds have reported results that may help.
[[record]]
smiles_input = "Cc1n[nH]c2cnc(-c3cncc(OC[C@@H](N)Cc4cccc(F)c4F)c3)cc12"
readout_kind = "IC50"
obs_value = "5 nM"

[[record]]
smiles_input = "Cc1n[nH]c2ccc(-c3cncc(OC[C@@H](N)Cc4ccc(C(F)(F)F)c(F)c4)c3)cc12"
readout_kind = "IC50"
obs_value = "3.1 nM"

[[record]]
smiles_input = "Cc1n[nH]c2ccc(-c3cncc(OC[C@@H](N)Cc4cc(C(F)(F)F)cc(C(F)(F)F)c4)c3)cc12"
readout_kind = "IC50"
obs_value = "57 nM"

[[record]]
smiles_input = "Cc1n[nH]c2ccc(-c3cncc(OC[C@@H](N)Cc4ccc(F)c(C(F)(F)F)c4)c3)cc12"
readout_kind = "IC50"
obs_value = "1.8 nM"


Continue with the compound presented below.
Ask | Answer with reported IC50 of "Cc1n[nH]c2ccc(-c3cncc(OC[C@@H](N)Cc4cccc(Cl)c4)c3)cc12"
Reply | 5.9 nM
